Target: T1, human IL13 (human, UniProt P35225 35-146, biotinylated in the SPR assays (sites not given))
T1 construct: Peprotech; also called hIL13; recombinant human IL13
T1 sequence (P35225 other isoform, or with tags, fused parts or gaps limits assumed): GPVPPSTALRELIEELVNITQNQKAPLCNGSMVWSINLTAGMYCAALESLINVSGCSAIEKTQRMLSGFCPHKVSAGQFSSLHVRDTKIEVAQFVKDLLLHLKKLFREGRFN
Test: Affinity to IL13; method not re-described
outcome_measure: Kd (nM)
Answers are plain numbers, in nM.

binder: C06_53G6_V1_C01_6G9_V1 (designed binder, bispecific IL4/IL13 ankyrin repeat protein with (GGGGS)4 linker; also called bispecific AR protein) DLGKKLLEAARAGQDDEVRILMANGADVNATDDWGDTLLHLAATDGHLEIVEVLLKAGADVNANDAIGDTPLHLAALYGHLEIVEVLLKYGADVNATDLHGFTPLHLAAFWGHLEIVEVLLKHGADVNAQDKFGKTAFDISIDNGNEDLAEILQKLNGGGGSGGGGSGGGGSGGGGSDLDKKLLEAARAGQDDEVRILMANGADVNARDSYGSTPLHLAAREGHLEIVEVLLKYGADVNAADFIGDTPLHLAAYRGHLEIVEVLLKYGADVNASDITGETPLHLAAQIGHLEIVEVLLKHGADVNAQDKFGKTAFDISIDNGNEDLAEILQKLN
reported: 0.0384
--
binder: C06_44C12_V2_C01_6G9_V1 (designed binder, bispecific IL4/IL13 ankyrin repeat protein with (GGGGS)4 linker; also called bispecific AR protein) DLGKKLLEAASAGQDDEVHILMANGADVNALDDSGYTPLHLAAEDGHLEIVEVLLKHGADVNAADRLGDTPLHLAAFVGHLEIVEVLLKAGADVNAVDLAGVTPLHVAAFYGHLEIVEVLLKAGADVNAQDKFGKTAFDISIDNGNEDLAEILQKLNGGGGSGGGGSGGGGSGGGGSDLDKKLLEAARAGQDDEVRILMANGADVNARDSYGSTPLHLAAREGHLEIVEVLLKYGADVNAADFIGDTPLHLAAYRGHLEIVEVLLKYGADVNASDITGETPLHLAAQIGHLEIVEVLLKHGADVNAQDKFGKTAFDISIDNGNEDLAEILQKLN
reported: 0.0116

Parameters: items (list). Returns: Kd for each item.
1. C06_28E5_V1_C01_6G9_V1 (designed binder, bispecific IL4/IL13 ankyrin repeat protein with (GGGGS)4 linker; also called bispecific AR protein) DLGKKLLEAARAGQDDEVRILMANGADVNAADDSGITPLHLAAEDGHLEIVEVLLKAGADVNAQDNLGDTPLHLAAWTGHLEIVEVLLKAGADVNAYDISGITPLHLAAFYGHLEIVEVLLKHGADVNAQDKFGKTAFDISIDNGNEDLAEILQKLNGGGGSGGGGSGGGGSGGGGSDLDKKLLEAARAGQDDEVRILMANGADVNARDSYGSTPLHLAAREGHLEIVEVLLKYGADVNAADFIGDTPLHLAAYRGHLEIVEVLLKYGADVNASDITGETPLHLAAQIGHLEIVEVLLKHGADVNAQDKFGKTAFDISIDNGNEDLAEILQKLN
2. C01_6G9_V1_C06_28E5_V1 (designed binder, bispecific IL13/IL4 ankyrin repeat protein with (GGGGS)4 linker; also called bispecific AR protein) DLDKKLLEAARAGQDDEVRILMANGADVNARDSYGSTPLHLAAREGHLEIVEVLLKYGADVNAADFIGDTPLHLAAYRGHLEIVEVLLKYGADVNASDITGETPLHLAAQIGHLEIVEVLLKHGADVNAQDKFGKTAFDISIDNGNEDLAEILQKLGGGGSGGGGSGGGGSGGGGSRSDLGKKLLEAARAGQDDEVRILMANGADVNAADDSGITPLHLAAEDGHLEIVEVLLKAGADVNAQDNLGDTPLHLAAWTGHLEIVEVLLKAGADVNAYDISGITPLHLAAFYGHLEIVEVLLKHGADVNAQDKFGKTAFDISIDNGNEDLAEILQKLN
3. C01_6G9_V1_C06_44C12_V2 (designed binder, bispecific IL13/IL4 ankyrin repeat protein with (GGGGS)4 linker; also called bispecific AR protein) DLDKKLLEAARAGQDDEVRILMANGADVNARDSYGSTPLHLAAREGHLEIVEVLLKYGADVNAADFIGDTPLHLAAYRGHLEIVEVLLKYGADVNASDITGETPLHLAAQIGHLEIVEVLLKHGADVNAQDKFGKTAFDISIDNGNEDLAEILQKLNGGGGSGGGGSGGGGSGGGGSDLGKKLLEAASAGQDDEVHILMANGADVNALDDSGYTPLHLAAEDGHLEIVEVLLKHGADVNAADRLGDTPLHLAAFVGHLEIVEVLLKAGADVNAVDLAGVTPLHVAAFYGHLEIVEVLLKAGADVNAQDKFGKTAFDISIDNGNEDLAEILQKLN

Response given:
1: 0.0106; 2: 0.0166; 3: 0.0091

Every entry's value here was drawn from patent US20120277143A1.
